Assay: yeast display, Sf9 membrane polyspecificity reagent, FACS + sequencing; frameworks hold sequencing errors
measurement-name: polyreactivity (PSR sort gate)

The cases that follow already have their polyreactivity (PSR sort gate) on record.
biosequence | polyreactivity (PSR sort gate)
QVQLVESGGGLVQAGGSLRLSCAASGSIFQGNAMGWYRQAPGKERELVAAISSRGGTTYYADSVKGRFTISRDNAKNTVYLQMNSLKPEDTAVYYCARDSGYYWYYRYGYWGQGTQVTVSS | high polyreactivity
QVQLVESGGGLVQAGGSLRLSCAASGSTFHWYDMGWYRQAPGKERELVAGINSSGDGTYYADSVKGRFTISRDNAKYTVYLQMNSLKPEDTAVYYCAAPWWYYGVPYQTNKYDYWGQGTQVTVSS | low polyreactivity
QVQLVESGGGLVQAGGSLRLSCAASGYTFDGYPRGWYRQAPGKERELVAVITKSGGRTYYADSVKGRFTNSRDNAKNTVYLQMNSLKPEDTAVYYCAADDSGTKDIVEGEYWGQGTQVTVSS | high polyreactivity
QVQLVESGGGLVQAGGSLRLSCAASGYIFGYNAMGWYRQAPGKERELVAAINYSGTRTYYADSVKGRFTISRDNAKNTVYLQKNSLKPEDTAVYYCNAVGQLQYVSSDDYWGQGTQVTVSS | high polyreactivity

Let's switch to this sequence now.
`QVQLVESGGGLVQAGGSLRLSCAASGLIFVINARGWYRQAPGKERELVAAIDYSGGSTYYADSVKGRFTISRDNAKNTVYLQMNSLKPEDTAVYYCAASKIGYWGDYFRYYYWGQGTQVTVSS` has a reported polyreactivity (PSR sort gate) of low polyreactivity
